B1: Azoarcus group I ribozyme (parent)
chain: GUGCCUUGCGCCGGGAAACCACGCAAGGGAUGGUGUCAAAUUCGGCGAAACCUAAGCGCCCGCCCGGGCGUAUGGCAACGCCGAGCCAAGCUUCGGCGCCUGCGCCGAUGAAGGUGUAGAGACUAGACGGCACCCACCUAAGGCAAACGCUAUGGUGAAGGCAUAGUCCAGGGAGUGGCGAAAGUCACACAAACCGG

variants of: B1; assay: reverse-splicing fitness (ratio to wild type); higher = more active; in vitro selection; Mg2+ level not given
Field: reverse-splicing fitness. Provide a value for each of the variants that follow.

As a guide, the following entries are already answered.
C82A A111U A120U A145U C150U C169U U176G = 0.00299
C82G A111G A120C A145G C150U C169A U176C = 0.0173

Hi there! I need reverse-splicing fitness for each item below, if you can.
1. C82G A111U A120C U176A
2. C82G A111C A145U C150A C169G U176A
3. A111U A120G A145G C150A U176C
4. C82A A111U A120G C150A C169A U176G
5. C82G A120G A145C C150U C169A

Response:
[0.0172, 0.0157, 0.0274, 0.00665, 0.0116]

Hi there! I need reverse-splicing fitness for each item below, if you can.
1. C82U A111G A120G A145C C150U C169G U176G
2. A111U C150G C169G U176C
3. C82G A120C A145G C150G C169G U176G
4. C82G A111C A120C A145C C150A C169A U176G
5. C82A A111G A120U A145C C150U C169G U176C

Response:
1: 0.0045; 2: 0.00465; 3: 0.00667; 4: 0.00693; 5: 0.0025

Hi there! I need reverse-splicing fitness for each item below, if you can.
1. A111U U176A
2. C82G A111C A120U A145C U176C
3. C82U A111G C169G U176G
4. C82U A120C A145U C150G C169A
5. C82A A111U A120C A145C U176A

Response:
[0.823, 0.013, 0.00463, 0.00827, 0.0139]

Hi there! I need reverse-splicing fitness for each item below, if you can.
1. A120C A145G C169G U176G
2. C82U A111U A145U C150A
3. C82G A111G A120U C150G U176C
4. C82U A111G C150G C169A
5. C82A A111C C150G C169U U176A

Response:
1. 0.00382
2. 0.0273
3. 0.00821
4. 0.00812
5. 0.0073

Every entry's value here was drawn from the RNAGym collection of RNA variant scans (doi:10.1093/molbev/msab373).
